Reference source for all entries: patent US20200339625A1

- Tested on: mice bearing PSMA-expressing LNCAP cancer xenografts
- TEST: Biodistribution of 68Ga-labeled compounds
- Format: in vivo
- MEASUREMENT CONDITIONS: 3 h post-injection
Let's look at some molecules and their measured Testes uptake.
The answer is to be given in % ID/g; state only the numeric part.

// worked examples, Testes uptake included
O=C([O-])CN1CCN(CC(=O)[O-])CCN(CC(=O)NCCCC[C@H](NC(=O)CNC(=O)CCCc2ccc(Cl)cc2)C(=O)NC[C@H]2CC[C@H](C(=O)N[C@@H](Cc3ccc4ccccc4c3)C(=O)NCCCC[C@H](NC(=O)N[C@@H](CCC(=O)O)C(=O)O)C(=O)O)CC2)CCN(CC(=O)[O-])CC1.[68Ga+3] [^68Ga-HTK03055]; 2.63
O=C([O-])CN1CCN(CC(=O)[O-])CCN(CC(=O)NCCCC[C@H](NC(=O)CNC(=O)CCCc2ccc(Br)cc2)C(=O)NC[C@H]2CC[C@H](C(=O)N[C@@H](Cc3ccc4ccccc4c3)C(=O)NCCCC[C@H](NC(=O)N[C@@H](CCC(=O)O)C(=O)O)C(=O)O)CC2)CCN(CC(=O)[O-])CC1.[68Ga+3] [^68Ga-HTK03058]; 3.02

In plain terms, O=C([O-])CN1CCN(CC(=O)[O-])CCN(CC(=O)NCC2CCC(C(=O)NC(Cc3c4ccccc4cc4ccccc34)C(=O)NCCCCC(NC(=O)NC(CCC(=O)O)C(=O)O)C(=O)O)CC2)CCN(CC(=O)[O-])CC1.[68Ga+3] (centres unmarked) [^68Ga-HTK03041] has a documented Testes uptake of 0.89

In plain terms, Cc1ccc(CCCC(=O)NCC(=O)N[C@@H](CCCCNC(=O)CN2CCN(CC(=O)[O-])CCN(CC(=O)[O-])CCN(CC(=O)[O-])CC2)C(=O)NC[C@H]2CC[C@H](C(=O)N[C@@H](Cc3ccc4ccccc4c3)C(=O)NCCCC[C@H](NC(=O)N[C@@H](CCC(=O)O)C(=O)O)C(=O)O)CC2)cc1.[68Ga+3] [^68Ga-HTK03090] has a documented Testes uptake of 2.08

In plain terms, O=C([O-])CN1CCN(CC(=O)[O-])CCN(CC(=O)NCCCC[C@H](NC(=O)CNC(=O)CCc2ccccc2)C(=O)NC[C@H]2CC[C@H](C(=O)N[C@@H](Cc3ccc4ccccc4c3)C(=O)NCCCC[C@H](NC(=O)N[C@@H](CCC(=O)O)C(=O)O)C(=O)O)CC2)CCN(CC(=O)[O-])CC1.[68Ga+3] [^68Ga-HTK03082] has a documented Testes uptake of 0.13

In plain terms, Nc1ccc(CCCC(=O)NCC(=O)N[C@@H](CCCCNC(=O)CN2CCN(CC(=O)[O-])CCN(CC(=O)[O-])CCN(CC(=O)[O-])CC2)C(=O)NC[C@H]2CC[C@H](C(=O)N[C@@H](Cc3ccc4ccccc4c3)C(=O)NCCCC[C@H](NC(=O)N[C@@H](CCC(=O)O)C(=O)O)C(=O)O)CC2)cc1.[68Ga+3] [^68Ga-HTK03087] has a documented Testes uptake of 0.17

In plain terms, COc1ccc(CCCC(=O)NCC(=O)N[C@@H](CCCCNC(=O)CN2CCN(CC(=O)[O-])CCN(CC(=O)[O-])CCN(CC(=O)[O-])CC2)C(=O)NC[C@H]2CC[C@H](C(=O)N[C@@H](Cc3ccc4ccccc4c3)C(=O)NCCCC[C@H](NC(=O)N[C@@H](CCC(=O)O)C(=O)O)C(=O)O)CC2)cc1.[68Ga+3] [^68Ga-HTK03086] has a documented Testes uptake of 1.30

In plain terms, O=C([O-])CN1CCN(CC(=O)[O-])CCN(CC(=O)NCCCC[C@H](NC(=O)CNC(=O)CCCc2ccccc2)C(=O)NC[C@H]2CC[C@H](C(=O)N[C@@H](Cc3ccc4ccccc4c3)C(=O)NCCCC[C@H](NC(=O)N[C@@H](CCC(=O)O)C(=O)O)C(=O)O)CC2)CCN(CC(=O)[O-])CC1.[68Ga+3] [^68Ga-HTK03056] has a documented Testes uptake of 0.56
